target: Human recombinant GST-PI3Kγ (Homo sapiens, UniProt P48736); assay: High throughput PI3K lipid kinase assay (scintillation proximity assay, neomycin-coated SPA beads); settings: [33P]γ-ATP, 180 minutes at room temperature
Sequence (P48736 whole entry): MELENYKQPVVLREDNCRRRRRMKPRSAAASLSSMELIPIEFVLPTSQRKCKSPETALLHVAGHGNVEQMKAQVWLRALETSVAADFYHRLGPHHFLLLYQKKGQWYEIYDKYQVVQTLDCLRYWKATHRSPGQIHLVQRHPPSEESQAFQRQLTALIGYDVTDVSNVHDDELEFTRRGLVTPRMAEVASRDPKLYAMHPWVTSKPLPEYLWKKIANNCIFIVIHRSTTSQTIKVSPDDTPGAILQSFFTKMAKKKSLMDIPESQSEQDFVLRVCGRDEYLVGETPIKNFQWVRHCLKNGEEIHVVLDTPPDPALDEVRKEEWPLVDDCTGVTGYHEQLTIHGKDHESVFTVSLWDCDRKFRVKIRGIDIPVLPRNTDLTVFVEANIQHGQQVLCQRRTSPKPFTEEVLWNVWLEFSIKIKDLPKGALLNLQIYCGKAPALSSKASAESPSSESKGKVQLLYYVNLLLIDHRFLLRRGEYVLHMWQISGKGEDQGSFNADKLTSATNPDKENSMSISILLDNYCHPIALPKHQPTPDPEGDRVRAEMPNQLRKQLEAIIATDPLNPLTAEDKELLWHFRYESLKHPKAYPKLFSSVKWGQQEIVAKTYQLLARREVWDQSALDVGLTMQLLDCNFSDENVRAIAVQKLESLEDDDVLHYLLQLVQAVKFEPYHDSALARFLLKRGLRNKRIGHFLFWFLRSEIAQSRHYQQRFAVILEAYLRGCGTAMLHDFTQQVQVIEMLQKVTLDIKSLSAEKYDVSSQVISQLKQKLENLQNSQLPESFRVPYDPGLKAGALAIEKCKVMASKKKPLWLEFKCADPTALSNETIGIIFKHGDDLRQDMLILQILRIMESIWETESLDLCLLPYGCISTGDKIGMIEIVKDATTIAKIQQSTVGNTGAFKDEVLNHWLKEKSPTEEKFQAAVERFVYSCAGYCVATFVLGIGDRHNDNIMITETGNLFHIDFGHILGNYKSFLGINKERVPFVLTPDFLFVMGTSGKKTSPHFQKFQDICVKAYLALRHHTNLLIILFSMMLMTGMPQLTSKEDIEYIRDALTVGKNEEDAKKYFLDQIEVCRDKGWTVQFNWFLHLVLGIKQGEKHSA
pIC50: −log10 of the molar value. Counter-ions that a name gives are not always drawn.
# binarize pIC50: threshold 8 inclusive, high side Satisfied, low side Not satisfied

Answered cases to consult:
molecule: O=C1NC(=O)/C(=C/c2ccc3ncnc(N4CCCCC4)c3n2)S1 [Example 1, potassium salt]
group: Satisfied
--
molecule: O=C1NC(=S)SC1=Cc1ccc2ncnc(N3CCC(F)CC3)c2n1
group: Satisfied
--
molecule: O=C1NC(=O)/C(=C/c2ccc3nccnc3n2)S1
group: Not satisfied

Now let's try a different one.
In plain terms: is recorded pIC50 at least 8 for `O=C1NC(=O)/C(=C/c2ccc3occc3n2)S1` ? Not satisfied
